Target: Nuclear receptor subfamily 1 group I member 2 (Homo sapiens)
Assay: Human pregnane X receptor (PXR) small molecule agonists, qHTS assay (AID 1346982); further: nearly all actives have a fitted effect of over 35% in size
Conditions: PXR-Luc HepG2, CYP3A4 luciferase reporter, 24 h; series mostly up to 92.4 µM
Inconclusive results are not listed. Calls of active or inactive are those of the source. The call rests on the fitted dose curve; in most records, active means well fitted activation curve with a large enough effect in the repeat runs; inconclusive means weak or mixed curves; inactive means no such curve, though single readings can be large or run the other way.
Hi there, use one of these labels in your reply, thanks! Yes (active), No (inactive)

Answered examples (8):
{"Compound": "CC(C)(C)C(=O)O", "Class name": "No"}
{"Compound": "COc1ccccc1N=Nc1c(S(=O)(=O)O)cc2cc(S(=O)(=O)O)cc(NC(C)=O)c2c1O", "Class name": "No"}
{"Compound": "CC1(C)C2=CCCC(C)(C)[C@]23CC[C@H]1C3", "Class name": "Yes"}
{"Compound": "OCC1CC=CCC1 (stereo unspecified)", "Class name": "No"}
{"Compound": "COc1cc2c(cc1OC)-c1cc(=Nc3c(C)cc(C)cc3C)n(C)c(=O)n1CC2", "Class name": "Yes"}
{"Compound": "O=S1OCCO1", "Class name": "No"}
{"Compound": "Fc1ccccc1[C@@H](F)COC1CCC(Nc2ncnc3[nH]ncc23)CC1 (stereo partly specified)", "Class name": "No"}
{"Compound": "CC1=NN(c2ccc(C(=O)O)cc2)C(=O)C1", "Class name": "No"}

Note: attention shifts to another entry.
Lookup: Outcome logged for Brc1cc(-c2ccc(Br)c(Br)c2Br)cc(Br)c1Br in this assay:
Found: Yes

---

Experiment: qHTS assay for identifying genotoxic compounds that show differential cytotoxicity against isogenic chicken DT40 cell lines with known DNA damage response pathways - Rev3 mutant cell line (AID 743014); further: nearly all actives have a fitted effect of over 55% in size
Conditions: chicken DT40 Rev3-/- viability, CellTiter-Glo, 40 h; series mostly up to 68.4 µM
Results filed as inconclusive are left out. Calls of active or inactive are those of the source. The call rests on the fitted dose curve; in most records, active means well fitted cell-killing curve with a large enough effect in the repeat runs; inconclusive means weak or mixed curves, or effect the other way; inactive means no such curve, though single readings can be large or run the other way.
Your reply should match one of these outcome classes. active, inactive

{"Compound": "Nc1ccc(S(=O)(=O)O)c(N)c1", "Class name": "inactive"}
{"Compound": "CCN(CC)CCNC(=O)c1ccc(NC(C)=O)cc1", "Class name": "inactive"}
{"Compound": "CC1=CC(O)CC(C)(C)C1 (stereo not drawn)", "Class name": "inactive"}
{"Compound": "Cc1nc2ccccn2c(=O)c1CCN1CCC(C(=O)c2ccc(F)cc2)CC1", "Class name": "inactive"}

Lookup: Identify the outcome logged in this assay for the compound shown: CO[Si](C)(OC)OC
Found: inactive

Lookup: Hi team, can someone confirm the assay call for Cc1occc1C(=O)Nc1ccc(C(=O)N2CCC(F)(F)/C(=C\C(=O)N3CCC(N4CCCCC4)CC3)c3ccccc32)cc1 ?
Found: inactive

Lookup: Test call, this compound: OC/C(Br)=C(\Br)CO
Found: inactive

Lookup: Assay result, entry Cc1oc(C)c(C(=O)Nc2ccccc2)c1C — outcome?
Found: active

Lookup: Test call for this compound, please: CC(N)CN (stereo not drawn)
Found: inactive

Lookup: Record request — test call for CC(C)CCCCCCOC(=O)CCCCC(=O)OCCCCCCC(C)C
Found: active

Lookup: Recorded test outcome, item C[C@]12CCC(=O)C=C1C=C[C@@H]1[C@@H]2CC[C@@]2(C)[C@H]1CC[C@@]21CCC(=O)O1
Found: active

Lookup: Call for entry CN(C)CCOC1=Cc2ccccc2Sc2ccc(Cl)cc21 :
Found: active

Lookup: Which outcome did this test record for the compound CCn1nc(C)c2c1C(=O)NCC(c1ccc(O)cc1)=N2 ?
Found: active

---

Test: qHTS assay to identify small molecule HDAC inhibitors - cell viability counter screen (AID 1259365); further: nearly all actives have a fitted effect of over 50% in size
Conditions: HCT-116 viability, CellTiter-Glo ATP luminescence, 2 h; series mostly up to 92.4 µM
Calls of active or inactive are those of the source. Calls follow the shape of the dose curve; as a rule, active = well fitted cell-killing curve with a large enough effect in the repeat runs; inconclusive = weak or mixed curves, or effect the other way; inactive = flat fitted curve, though single readings scatter.
Property label: activity change, negative = cytotoxicity

{"Compound": "COCCOC(=O)C1=C(C)NC(C)=C(C(=O)OC/C=C/c2ccccc2)C1c1cccc([N+](=O)[O-])c1 (stereo unspecified)", "activity change, negative = cytotoxicity": "inactive"}
{"Compound": "CCCCCCCCCCCCCCC[C@H](O)[C@@H](N)CO", "activity change, negative = cytotoxicity": "inactive"}
{"Compound": "Cc1nc2ccccn2c(=O)c1CCN1CCC(C(=O)c2ccc(F)cc2)CC1", "activity change, negative = cytotoxicity": "inactive"}
{"Compound": "CCCCC(CC)C(=O)OCCOCCOCCOCCOC(=O)C(CC)CCCC (stereo unspecified)", "activity change, negative = cytotoxicity": "inactive"}
{"Compound": "CC1=C(C=O)C(C)(C)CCC1", "activity change, negative = cytotoxicity": "inactive"}

Lookup: Reported activity change, negative = cytotoxicity, compound CCOC(=O)c1ccccc1OC : ____
Found: inactive

Lookup: Look at this compound and give its reported activity change, negative = cytotoxicity. CC(=N\O)/C(C)=N/O
Found: inactive

---

Assay: qHTS assay to identify small molecule antagonists of the estrogen receptor alpha (ER-alpha) signaling pathway using the BG1 cell line - cell viability counter screen (AID 743081);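 further: compound given together with 17beta-estradiol as the ER stimulus; nearly all actives have a fitted effect of over 45% in size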
Details: BG1Luc4E2 viability, CellTiter-Fluor, 22 h; series mostly up to 70.3 µM
Results filed as inconclusive are left out. The source made the active and inactive calls. Calls come from the whole dose curve; as a rule, active = well fitted cell-killing curve with a large enough effect in the repeat runs; inconclusive = weak or mixed curves, or effect the other way; inactive = flat fitted curve, though single readings scatter.
Write down one outcome, taken from active, inactive

{"Molecule": "COCCOC", "Class name": "inactive"}
{"Molecule": "CC(C)c1nnc2ccc(-c3ocnc3-c3cc(F)ccc3F)cn12", "Class name": "inactive"}
{"Molecule": "C(=C\\c1ccccc1)/CN1CCN(C(c2ccccc2)c2ccccc2)CC1", "Class name": "inactive"}

Lookup: Status in this test for O=C(O)C(Cc1cc(I)c(O)c(I)c1)c1ccccc1 (stereo unspecified) ?
Found: inactive

Lookup: Per the records of this test, what outcome belongs to Cc1cc(O)c2c(O)c3c(O)cccc3cc2c1 ?
Found: inactive

Lookup: Per the records of this test, what outcome belongs to COC(=O)[C@@H]1CC2=CC(=O)CC[C@]2(C)[C@@]23O[C@@H]2C[C@@]2(C)[C@@H](CC[C@@]24CCC(=O)O4)[C@H]13 ?
Found: inactive

Lookup: Hello, I am checking results. What call was entered for Cc1cc(S(=O)(=O)O)ccc1N=Nc1c(O)ccc2ccccc12 ?
Found: active

Lookup: Entry CCCCCCOC(=O)CCCCCCCC(=O)OCCCCCC : call = ?
Found: inactive

Lookup: Per the records of this test, what outcome belongs to COC(=O)CC(=O)C(C)(C)C ?
Found: inactive

Lookup: Please indicate how the test categorized C[C@]12CCC(=O)C=C1C=C[C@@H]1[C@@H]2CC[C@@]2(C)[C@H]1CC[C@@]21CCC(=O)O1 .
Found: inactive

Lookup: Could you kindly confirm the outcome this assay logged for c1cnc2c(n1)CCCC2 ?
Found: inactive

Lookup: Recorded call for CSc1ccc(Oc2ccc(S(N)(=O)=O)cc2CN(C)C)cc1C ?
Found: inactive

Lookup: // param item: CO[C@H]1O[C@H](CO)[C@@H](O)[C@H](O)[C@H]1O ; yields the recorded call
Found: inactive

Lookup: Name the outcome recorded for N#C[C@@H]1C[C@@H]2C[C@@H]2N1C(=O)[C@@H](N)C12CC3CC(CC(O)(C3)C1)C2 in the assay.
Found: inactive

Lookup: Tell me the recorded outcome of this test for CCC(C)(C)C1CCC(O)CC1 (stereo unspecified) .
Found: inactive

Lookup: What did this assay record as the result for CN1C(=O)CC(C)(c2ccccc2)C1=O (stereo unspecified) ?
Found: inactive

Lookup: Short answer needed: outcome of this test for CCOC(=O)/C=C/C(=O)O ?
Found: inactive

Lookup: For CCOc1cc(N)c(Cl)cc1C(=O)NCC1CN(Cc2ccc(F)cc2)CCO1 (stereo unspecified) , what call appears in the results of this test?
Found: inactive

Lookup: What is the recorded call for this molecule in the test? O=S1OCCO1
Found: inactive

---

Experiment: qHTS assay to identify small molecule antagonists of the estrogen receptor alpha (ER-alpha) signaling pathway using the BG1 cell line in the presence of 0.1 nM 17-beta-estradiol - cell viability counter screen (AID 1259241); further: potency means the concentration at half of the fitted maximal effect; nearly all actives have a fitted effect of over 40% in size
Details: VM7Luc4E2 (BG1) viability, CellTiter-Fluor protease, 22 h, 0.1 nM estradiol agonist added; series mostly up to 92.4 µM
Inconclusive results are not listed. Activity calls are given as the source filed them. The call rests on the fitted dose curve; in most records, active means well fitted cell-killing curve with a large enough effect in the repeat runs; inconclusive means weak or mixed curves, or effect the other way; inactive means flat fitted curve, though single readings scatter.
Property label: Potency

Below, 3 molecules whose answers are already recorded.
{"Compound": "CO[C@H]1C=CO[C@@]2(C)Oc3c(C)c(O)c4c(O)c(c5c(c4c3C2=O)=NC2(CCN(CC(C)C)CC2)N=5)NC(=O)/C(C)=C\\C=C/[C@H](C)[C@H](O)[C@@H](C)[C@@H](O)[C@@H](C)[C@H](OC(C)=O)[C@@H]1C", "Assay result": "47.5 µM (active)"}
{"Compound": "COc1ccccc1N=Nc1c(S(=O)(=O)O)cc2cc(S(=O)(=O)O)cc(NC(C)=O)c2c1O", "Assay result": "22.9 µM (active)"}
{"Compound": "Cc1cc(S(=O)(=O)O)ccc1N=Nc1c(O)ccc2ccccc12", "Assay result": "34.4 µM (active)"}

Alright, here's another molecule for you.
Lookup: For the molecule CCNC(=O)N1CCN(CCCC(c2ccc(F)cc2)c2ccc(F)cc2)CC1 , what Potency is on record?
Found: 26.6 µM (active)
